- Target or system: Ubiquitin carboxyl-terminal hydrolase 2 (Homo sapiens)
- Assay: Confirmation Assay for Inhibitors of Ubiquitin-specific Protease USP2a Using CHOP2 as the Reporter; also: nearly all actives have a fitted effect of over 55% in size; also: potency is read from the fitted curve at half-maximal effect
- Particulars: USP2 core, Ub-CHOP2 coupled reporter fluorescence; series mostly up to 38.3 µM
Records with an inconclusive call do not appear. The source made the active and inactive calls. Calls follow the shape of the dose curve; as a rule, active = well fitted inhibition curve with a large enough effect; inconclusive = small, poorly fitted or top-dose-only effect, or effect the other way; inactive = flat fitted curve, though single readings scatter.
Attribute measured: Potency

[
  {
    "Compound": "Cc1ccc(N2CN=c3s/c(=C\\c4cccnc4)c(=O)n3C2)cc1",
    "Attribute measured": "Potency",
    "Result": "inactive"
  },
  {
    "Compound": "C/C(=N/NC(=O)c1cc2ccccc2cc1O)C1C(=O)c2ccccc2C1=O",
    "Attribute measured": "Potency",
    "Result": "5.85 µM (active)"
  },
  {
    "Compound": "CC(C)(C)C1C=C(Sc2ccccc2)C(=O)O1 (configuration not stated)",
    "Attribute measured": "Potency",
    "Result": "inactive"
  },
  {
    "Compound": "CC1(C)CC(=O)C2=C(C1)N(Cc1ccco1)C(=O)NC2(C(F)(F)F)C(F)(F)F",
    "Attribute measured": "Potency",
    "Result": "inactive"
  },
  {
    "Compound": "Cc1cc(-c2csc(NC(=O)c3ccc(=O)[nH]c3)n2)c(C)n1Cc1ccccc1",
    "Attribute measured": "Potency",
    "Result": "inactive"
  },
  {
    "Compound": "Cc1ccc(-c2ccc(CCC(=O)O)n2NC(=O)c2cccs2)cc1",
    "Attribute measured": "Potency",
    "Result": "inactive"
  },
  {
    "Compound": "c1ccc(-c2nc3nc4ccccc4nc3n2Cc2ccco2)cc1",
    "Attribute measured": "Potency",
    "Result": "inactive"
  },
  {
    "Compound": "CCn1c(CN2CCOCC2)nnc1SCC(=O)Nc1ccc(C(C)=O)cc1",
    "Attribute measured": "Potency",
    "Result": "inactive"
  }
]

Request: Given CC1(C)CC(=O)C2=C(C1)NCN(CCCN1CCOCC1)C2 , state its recorded Potency.
Result: inactive

Request: Given O=C(Cc1ccc(S(=O)(=O)N2CCOCC2)s1)Nc1nc2c(s1)CCCC2 , state its recorded Potency.
Result: 14.7 µM (active)

Request: // Potency lookup, key: O=C(COC(=O)c1c2c(nc3ccccc13)/C(=C/c1ccco1)CC2)NC1CCCC1
Result: 14.7 µM (active)

Request: I have this compound here, Cc1cc(C)cc(C(=O)Nc2ccc(N3CCCC3)cc2)c1 , and I need its recorded Potency.
Result: inactive

Request: Please look up its Potency: O=C(Nc1ccc(N2CCCC2)cc1)c1cccc(-c2cc3ccccc3oc2=O)c1
Result: inactive

Request: For COc1ccccc1N1CCN(c2cc(C)nc3nc(C)nn23)CC1 , what is its reported Potency?
Result: inactive

Request: Can you look up the measured Potency of O=C(CNC(=O)c1ccco1)Nc1ccc(S(=O)(=O)N2CCCC2)cc1 for me?
Result: inactive

Request: Form field: reported Potency of Cc1ccc(SCC(=O)Nc2ccc(C(=O)Nc3ccc(O)cc3)cc2)cc1
Result: inactive

Request: Report Potency for O=C(NCc1ccccc1)C1CCC1 please.
Result: inactive

Request: # lookup: Potency of C[C@](N)(Cc1ccc(O)c(O)c1)C(=O)O
Result: inactive

Request: Quick one: Potency of CCOC(=O)C(C)Sc1nnc(Cn2c(=O)sc3ccccc32)n1-c1ccccc1 (configuration not stated) ?
Result: inactive

Request: Potency lookup needed for CCC(CO)Oc1cc(NCc2cccc(C)c2)c2ncn(C(C)C)c2c1 (configuration not stated) , thanks.
Result: inactive

Request: Item under review: O=C1COc2ccc(C(=O)COC(=O)/C=C/c3ccc(Br)o3)cc2N1 . Reported Potency?
Result: 9.27 µM (active)

Request: Quick one: Potency for Cc1ccc(-c2cc(-c3ccc(C)cc3)[n+](-c3ccc(C(=O)[O-])cc3)c(-c3ccc(C)cc3)c2)cc1 ?
Result: inactive
